- target_system: Cytochrome P450 2C19 (Homo sapiens) (UniProt P33261)
- Sequence (P33261 whole entry, looked up): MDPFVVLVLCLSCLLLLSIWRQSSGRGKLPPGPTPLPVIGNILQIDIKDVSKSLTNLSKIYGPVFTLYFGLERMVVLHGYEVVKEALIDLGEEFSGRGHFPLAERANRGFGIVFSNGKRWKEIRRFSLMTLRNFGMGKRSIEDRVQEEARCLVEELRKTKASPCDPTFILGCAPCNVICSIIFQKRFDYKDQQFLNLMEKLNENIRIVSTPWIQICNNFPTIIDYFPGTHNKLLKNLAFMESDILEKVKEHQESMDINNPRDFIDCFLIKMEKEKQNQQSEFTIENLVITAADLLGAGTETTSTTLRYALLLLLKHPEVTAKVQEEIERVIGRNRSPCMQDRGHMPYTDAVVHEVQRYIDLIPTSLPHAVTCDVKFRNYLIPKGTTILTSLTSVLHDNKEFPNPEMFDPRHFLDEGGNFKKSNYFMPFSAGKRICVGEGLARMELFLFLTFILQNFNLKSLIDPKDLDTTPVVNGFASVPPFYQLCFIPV
- procedure_details: Cytochrome panel assay with activity outcomes
- conditions: recombinant CYP, pro-luciferin dealkylation, luminescence, p450-cyp2c19; series mostly up to 57.1 µM
Screen size: about 16,000 compounds; about 5,800 (36%) were called active. Another 23% or so got no clear call; they are omitted. Calls come from the whole dose curve; as a rule, active = well fitted curve in the direction sought with a large enough effect; inconclusive = small, poorly fitted or top-dose-only effect, or effect the other way; inactive = no such curve, though single readings can be large or run the other way. The list shows a part of the results.
Outcome codes: active, inactive

- compound: "O=C(Nc1cccc(C(F)(F)F)c1)C1CCCN1S(=O)(=O)c1cccc2cccnc12 (configuration not stated)"
  group_label: "active"
- compound: "Cc1ccc(NC2c3ncccc3C(=O)N2Cc2ccc(F)cc2)cc1 (configuration not stated)"
  group_label: "active"
- compound: "CCn1c(C)c(C)c2cc(C(=O)Nc3cccc(Cl)c3)ccc21"
  group_label: "active"
- compound: "CC(=O)N1N=C(c2cccc([N+](=O)[O-])c2)OC1c1ccccc1Cl (configuration not stated)"
  group_label: "active"
- compound: "CNC(=O)/C=C1\\NC(C)(C)Cc2c1ccc1ccccc21"
  group_label: "active"
- compound: "Cn1c(=O)c2c(nc(N3CCN(c4ccccn4)CC3)n2Cc2ccc(Cl)cc2Cl)n(C)c1=O"
  group_label: "active"
- compound: "Cc1ccc(NC(=O)Cn2nc([N+](=O)[O-])c(Br)c2C)cc1C"
  group_label: "active"
- compound: "c1ccc(Nc2nc(-c3cccnc3)nc3ccccc23)cc1"
  group_label: "inactive"
- compound: "CC1(C)Cc2c(ccc3ccccc23)C(=O)N1"
  group_label: "active"
- compound: "CN1CC[C@@]2(CCN3CCc4c(oc5ccccc45)[C@@H]3C2)N(C)C1=O"
  group_label: "inactive"
- compound: "O=C(NC12CC3CC(CC(C3)C1)C2)C12CC3CC(C1)CC(n1cnc(Cl)n1)(C3)C2"
  group_label: "active"
- compound: "Cc1c(C)n(C)c2ccc(C(=O)Nc3cccc4ccccc34)cc12"
  group_label: "active"
- compound: "O=C(Nc1ccccc1)N1CC[C@@]2(CCCN(C(=O)c3ccco3)C2)C1"
  group_label: "inactive"
- compound: "Cn1c(=O)c2c(nc(N3CCN(c4ccccn4)CC3)n2Cc2ccccc2Cl)n(C)c1=O"
  group_label: "active"
- compound: "C=CCn1c(Cc2c[nH]c3ccccc23)nnc1SCC(=O)NCc1ccccc1"
  group_label: "active"
- compound: "COc1ccc(NC(=O)C23CC4CC(C2)CC(n2cnc(Br)n2)(C4)C3)c(C)c1"
  group_label: "inactive"
- compound: "CCn1c(CC(=O)Nc2ccc(C)cc2)nnc1SCC(=O)Nc1nc(C)cs1"
  group_label: "inactive"
- compound: "COc1ccccc1NC(=O)Nc1nc(-c2cccnc2)nc2ccccc12"
  group_label: "inactive"
- compound: "N#CCCn1c(=O)c(-c2cc(F)cc(F)c2)nc2cnc(N3CCOCC3)nc21"
  group_label: "inactive"
- compound: "Cc1cccc(Oc2ncnc3onc(C)c23)c1C"
  group_label: "active"
- compound: "Cc1cc(Cl)ccc1OCC(=O)NCc1ccncc1"
  group_label: "active"
- compound: "CCOC(=O)c1ccc(Nc2nc(-c3cccnc3)nc3ccccc23)cc1"
  group_label: "active"

----------
- target_system: Cytochrome P450 2C19 (Homo sapiens) (UniProt P33261)
- procedure_details: Cytochrome panel assay with activity outcomes
- conditions: recombinant CYP, pro-luciferin dealkylation, luminescence, p450-cyp2c19; series mostly up to 57.1 µM
Among all 16,000 compounds or so, about 5,800 (36%) were called active. Roughly 23% stayed inconclusive and do not appear here. The call rests on the fitted dose curve; in most records, active means well fitted curve in the direction sought with a large enough effect; inconclusive means small, poorly fitted or top-dose-only effect, or effect the other way; inactive means no such curve, though single readings can be large or run the other way. Some of the results follow.
Outcomes: active, inactive

- compound: "S=C(Nc1ccc2cn[nH]c2c1)Nc1ccc2cn[nH]c2c1"
  target_system: "Cytochrome P450 2C19 (Homo sapiens) (UniProt P33261)"
  group_label: "active"
- compound: "CC1CC(C)CN(CCCNC(=O)C2CCCN(c3nnc(N4CCCC4=O)s3)C2)C1 (stereo unspecified)"
  target_system: "Cytochrome P450 2C19 (Homo sapiens) (UniProt P33261)"
  group_label: "inactive"
- compound: "COc1ccc(-c2nc3cnc(N(C)C)nc3n(Cc3cccs3)c2=O)cc1"
  target_system: "Cytochrome P450 2C19 (Homo sapiens) (UniProt P33261)"
  group_label: "inactive"
- compound: "Cc1nc(Sc2ccccc2)c(C#N)cc1-c1ccccc1"
  target_system: "Cytochrome P450 2C19 (Homo sapiens) (UniProt P33261)"
  group_label: "active"
- compound: "O=C1Nc2ccccc2/C1=N/c1sc2c(c1C(=O)NCCc1ccccc1)CCCC2"
  target_system: "Cytochrome P450 2C19 (Homo sapiens) (UniProt P33261)"
  group_label: "active"
- compound: "COCCn1c(=O)c(-c2ccc(F)cc2)nc2cnc(Oc3ccccc3)nc21"
  target_system: "Cytochrome P450 2C19 (Homo sapiens) (UniProt P33261)"
  group_label: "inactive"
- compound: "Cc1ccc(C(=O)COC(=O)CNC(=O)Cc2ccccc2)cc1[N+](=O)[O-]"
  target_system: "Cytochrome P450 2C19 (Homo sapiens) (UniProt P33261)"
  group_label: "inactive"
- compound: "CCC(=O)NC(=S)Nc1ccc(S(=O)(=O)NC(C)=O)cc1"
  target_system: "Cytochrome P450 2C19 (Homo sapiens) (UniProt P33261)"
  group_label: "inactive"
- compound: "CC(=O)[C@H]1CC[C@@H]2[C@H]3CC=C4C[C@@H](O)CC[C@]4(C)[C@H]3CC[C@]12C"
  target_system: "Cytochrome P450 2C19 (Homo sapiens) (UniProt P33261)"
  group_label: "inactive"
- compound: "CC(=O)[C@H]1CC[C@H]2[C@@H]3C=CC4=CC(=O)CC[C@@]4(C)[C@H]3CC[C@]12C"
  target_system: "Cytochrome P450 2C19 (Homo sapiens) (UniProt P33261)"
  group_label: "active"
- compound: "CCNc1ncc2nc(-c3ccc(OC)cc3)c(=O)n(Cc3cccs3)c2n1"
  target_system: "Cytochrome P450 2C19 (Homo sapiens) (UniProt P33261)"
  group_label: "inactive"
- compound: "CC1CCCN(CCCNC(=O)C2CC(=O)N(c3ccc(F)c(Cl)c3)C2)C1 (stereo unspecified)"
  target_system: "Cytochrome P450 2C19 (Homo sapiens) (UniProt P33261)"
  group_label: "active"
- compound: "Cc1ccc(NC(=S)NC2CCCC2)cc1"
  target_system: "Cytochrome P450 2C19 (Homo sapiens) (UniProt P33261)"
  group_label: "active"
- compound: "COc1ccc2[nH]cc(CCNc3ncnc4ccc(-c5ccccc5CN(C)C)cc34)c2c1"
  target_system: "Cytochrome P450 2C19 (Homo sapiens) (UniProt P33261)"
  group_label: "inactive"
- compound: "Nc1nc2ncc(CNc3ccc(C(=O)N[C@@H](CCC(=O)O)C(=O)O)cc3)nc2c(=O)[nH]1"
  target_system: "Cytochrome P450 2C19 (Homo sapiens) (UniProt P33261)"
  group_label: "inactive"
- compound: "N#CCCn1c(=O)c(-c2cccc(C#N)c2)nc2cnc(Oc3cccc(Cl)c3)nc21"
  target_system: "Cytochrome P450 2C19 (Homo sapiens) (UniProt P33261)"
  group_label: "inactive"
- compound: "Cc1ccc(C(=O)COC(=O)CNC(=O)C(c2ccccc2)c2ccccc2)cc1[N+](=O)[O-]"
  target_system: "Cytochrome P450 2C19 (Homo sapiens) (UniProt P33261)"
  group_label: "active"
- compound: "Nc1c2c(=O)oc(-c3ccccc3)cc2nn1-c1ccccc1"
  target_system: "Cytochrome P450 2C19 (Homo sapiens) (UniProt P33261)"
  group_label: "active"
- compound: "COc1ccccc1CN1CC[C@@]2(CCCN(S(=O)(=O)c3ccccc3)C2)C1"
  target_system: "Cytochrome P450 2C19 (Homo sapiens) (UniProt P33261)"
  group_label: "inactive"
- compound: "COc1ccc(-n2c(=O)c(-c3cccc(C#N)c3)nc3cnc(N4CCNCC4)nc32)cc1"
  target_system: "Cytochrome P450 2C19 (Homo sapiens) (UniProt P33261)"
  group_label: "inactive"
- compound: "COc1cccc(-c2ccc3ncnc(NCCc4c[nH]c5ccc(OC)cc45)c3c2)c1"
  target_system: "Cytochrome P450 2C19 (Homo sapiens) (UniProt P33261)"
  group_label: "active"

----------
- target_system: Cytochrome P450 2C19 (Homo sapiens) (UniProt P33261)
- procedure_details: Cytochrome panel assay with activity outcomes; for activity, negative = inhibition: % is set by controls: 0 for no effect and ±100 for the full control effect
- conditions: recombinant CYP, pro-luciferin dealkylation, luminescence, p450-cyp2c19; series mostly up to 57.1 µM
Screen size: about 16,000 compounds; about 5,800 (36%) were called active. Another 23% or so got no clear call; they are omitted. Some of the results follow. Square brackets hold non-standard residues; d marks the D form. Peptide text beside a SMILES is read from it.
# key: entry, value: activity, negative = inhibition
measured_quantity: activity, negative = inhibition

- compound: "O=c1ccc(-c2ccccc2)n[nH]1"
  measured_quantity: "activity, negative = inhibition"
  readout_value: "13.5% [at 11.4 µM] (inactive)"
- compound: "O=C(O)c1ccc(Nc2ccnc3cc(Cl)ccc23)cc1O"
  measured_quantity: "activity, negative = inhibition"
  readout_value: "-17.2% [at 11.4 µM] (inactive)"
- compound: "O=c1[nH]cc(CS(=O)(=O)Cc2c[nH]c(=O)[nH]c2=O)c(=O)[nH]1"
  measured_quantity: "activity, negative = inhibition"
  readout_value: "41% [at 11.4 µM] (inactive)"
- compound: "Nc1ccc(-c2ccc(Nc3cc(S(=O)(=O)O)c(N)c4c3C(=O)c3ccccc3C4=O)cc2)c(S(=O)(=O)O)c1"
  measured_quantity: "activity, negative = inhibition"
  readout_value: "-36% [at 11.4 µM] (inactive)"
- compound: "Cc1ccc(S(=O)(=O)N[C@H](C(=O)O)C(C)C)cc1"
  measured_quantity: "activity, negative = inhibition"
  readout_value: "4% [at 11.4 µM] (inactive)"
- compound: "NC([N-]/N=C/c1ccccn1)=[S]=[Fe].O=S(=O)(O)O"
  measured_quantity: "activity, negative = inhibition"
  readout_value: "-35.2% [at 11.4 µM] (inactive)"
- compound: "COc1ccc2c(c1)Cc1cc(N=[N+]([O-])c3ccc4c(c3)Cc3cc(OC)ccc3-4)ccc1-2"
  measured_quantity: "activity, negative = inhibition"
  readout_value: "-35.1% [at 11.4 µM] (inactive)"
- compound: "NCC(=O)N[C@H](CO)C(=O)O (H-Gly-[dS]-OH)"
  measured_quantity: "activity, negative = inhibition"
  readout_value: "-0.959% [at 11.4 µM] (inactive)"
- compound: "O=C(O)CCC(=O)c1ccc(Cl)cc1"
  measured_quantity: "activity, negative = inhibition"
  readout_value: "22.7% [at 11.4 µM] (inactive)"
- compound: "O=C(O)CN(CCN(CC(=O)O)CC(=O)O)CC(=O)O.[Cu]"
  measured_quantity: "activity, negative = inhibition"
  readout_value: "-41.9% [at 11.4 µM] (inactive)"
- compound: "CN(C)S(=O)(=O)c1ccc(Nc2ccc(O)c3c2C(=O)c2c([N+](=O)[O-])ccc(O)c2C3=O)cc1"
  measured_quantity: "activity, negative = inhibition"
  readout_value: "-34.2% [at 11.4 µM] (inactive)"
- compound: "O=C(O)CNCCc1ccccc1"
  measured_quantity: "activity, negative = inhibition"
  readout_value: "4.74% [at 11.4 µM] (inactive)"
- compound: "Oc1cc(O)c2c(c1)O[C@H](c1ccc(O)c(O)c1)[C@@H](O)[C@@H]2c1c(O)cc(O)c2c1O[C@@H](c1ccc(O)c(O)c1)[C@H](O)C2"
  measured_quantity: "activity, negative = inhibition"
  readout_value: "-23.6% [at 11.4 µM] (inactive)"
- compound: "O=C(Nc1ccc(Nc2ccc3c(c2)C(=O)c2ccccc2C3=O)c2c1C(=O)c1ccccc1C2=O)c1ccccc1"
  measured_quantity: "activity, negative = inhibition"
  readout_value: "-23.9% [at 11.4 µM] (inactive)"
- compound: "Nc1ccc(S(=O)(=O)c2ccc(NC(=O)c3cccnc3)cc2)cc1"
  measured_quantity: "activity, negative = inhibition"
  readout_value: "3.12% [at 11.4 µM] (inactive)"
- compound: "O=C(NNS(=O)(=O)c1ccccc1)c1cccnc1"
  measured_quantity: "activity, negative = inhibition"
  readout_value: "9.95% [at 11.4 µM] (inactive)"
- compound: "CO[C@@H]1COC(=O)C/C=C\\[C@H](C)COC(=O)[C@H](C)NC(=O)C/C=C\\[C@H]1C"
  measured_quantity: "activity, negative = inhibition"
  readout_value: "-28.2% [at 11.4 µM] (inactive)"
- compound: "CSc1nc(C)cc(Nc2ccc(O)c(CN3CCOCC3)c2)n1"
  measured_quantity: "activity, negative = inhibition"
  readout_value: "52.5% [at 11.4 µM] (inactive)"
- compound: "NC(N)=NC(N)=Nc1c(F)c(F)c(F)c(F)c1F"
  measured_quantity: "activity, negative = inhibition"
  readout_value: "-5.72% [at 11.4 µM] (inactive)"
- compound: "Br/C(=N\\Nc1nn[nH]n1)c1ccncc1"
  measured_quantity: "activity, negative = inhibition"
  readout_value: "22.2% [at 11.4 µM] (inactive)"
- compound: "C#CCCCO/N=C1/C[C@@H](O)[C@@H](O)[C@@H]2[C@@H]3C(=O)N(CCC(=O)OCC)C(=O)[C@H]3CC[C@H]12"
  measured_quantity: "activity, negative = inhibition"
  readout_value: "2.13% [at 11.4 µM] (inactive)"
